Each recorded value in this set is attributed to ChEMBL document CHEMBL5352474.

compounds and their reported selectivity ratio
# test: Selectivity index, ratio of IC50 for cytotoxicity against HEK293 cells to IC50 for antileishmanial activity against Leishmania major IR-173 promastigotes
# Assay type: toxicity, cell-based
# test.context: human, read-out: Ratio IC50

given.smiles: O=C1CN(/N=C/c2ccc([N+](=O)[O-])o2)C(=O)N1CCCCCCn1cc(-c2ccc(F)cc2)nn1
selectivity ratio: 40

given.smiles: O=C1CN(/N=C/c2ccc([N+](=O)[O-])o2)C(=O)N1CCCCCn1cc(-c2ccc(F)cc2)nn1
selectivity ratio: 40

given.smiles: CCCCCCCCc1cn(CCCN2C(=O)CN(/N=C/c3ccc([N+](=O)[O-])o3)C2=O)nn1
selectivity ratio: 16

given.smiles: Cc1ccc(-c2cn(CCCCCCN3C(=O)CN(/N=C/c4ccc([N+](=O)[O-])o4)C3=O)nn2)cc1
selectivity ratio: 47

given.smiles: O=C1CN(/N=C/c2ccc([N+](=O)[O-])o2)C(=O)N1CCCn1cc(CSc2ccccc2)nn1
selectivity ratio: 56

given.smiles: CCCCCCc1cn(CCCCCN2C(=O)CN(/N=C/c3ccc([N+](=O)[O-])o3)C2=O)nn1
selectivity ratio: 44

given.smiles: O=C1CN(/N=C/c2ccc([N+](=O)[O-])o2)C(=O)N1CCCCCCn1cc(CSc2ccccc2)nn1
selectivity ratio: 7

given.smiles: O=C1CN(/N=C/c2ccc([N+](=O)[O-])o2)C(=O)N1CCCn1cc(-c2cc(C(F)(F)F)cc(C(F)(F)F)c2)nn1
selectivity ratio: 46

given.smiles: CCCCc1cn(CCCCCCN2C(=O)CN(/N=C/c3ccc([N+](=O)[O-])o3)C2=O)nn1
selectivity ratio: 37

given.smiles: COc1ccc(-c2cn(CCCCCN3C(=O)CN(/N=C/c4ccc([N+](=O)[O-])o4)C3=O)nn2)cc1
selectivity ratio: 45
